Test: inhibitors of MT1-MMP promoter transcription, cell-based, luciferase reporter, luminescence (AID 618);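 note: actives suppress MT1-MMP promoter-driven transcription so potencies describe inhibitors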
Settings: MT1-MMP promoter luciferase reporter cells
Among all 87,000 compounds or so, about 540 (0.62%) were called active. The rule behind the calls is not given here. Only a selection was taken, and actives are over-represented in it overall. Results with a measured potency or affinity are listed apart.
Respond only with the outcome that fits, drawn from true (1) (active), false (0) (inactive)

Consider the following illustrative entries.
{"compound": "c1ccc(-c2nnc(-c3ccccn3)nc2NC2CCCCC2)cc1", "classification": "true (1)"}
{"compound": "Cc1nc2ncnn2c(Nc2ccc3c(c2)OCO3)c1Cc1ccccc1", "classification": "false (0)"}
{"compound": "c1ccc(-c2n[nH]c(-c3ccccn3)n2)cc1", "classification": "false (0)"}
{"compound": "O=C(c1cccs1)N1CCc2ccccc21", "classification": "false (0)"}

**Query** # outcome recorded in this test, key = Cc1ccc(NC2=NCCC2)cc1Cl
**Result** false (0)

**Query** # outcome recorded in this test, key = Brc1ccc(-c2ncc(-c3ccccc3)cn2)cc1
**Result** false (0)

**Query** # outcome recorded in this test, key = C=CCNc1nc(-c2ccccc2)nc(-n2ccnc2)n1
**Result** false (0)

**Query** # outcome recorded in this test, key = Cc1cccc(OCC(=O)Nc2cccc(O)c2)c1
**Result** false (0)

**Query** # outcome recorded in this test, key = Cn1cccc1C(=O)NC(=O)COC(=O)CC12CC3CC(CC(C3)C1)C2
**Result** false (0)

**Query** # outcome recorded in this test, key = Cc1ccc(OCC(=O)Nc2cccc(O)c2)cc1C
**Result** false (0)

**Query** # outcome recorded in this test, key = Cc1nc2ccccc2nc1N1CCC(C)CC1
**Result** false (0)

**Query** # outcome recorded in this test, key = CCc1nn(C(C)C(=O)NCCN2CCN(c3cccc(C)c3C)CC2)c(=O)c2cc3occc3n12 (configuration not stated)
**Result** false (0)

====

Assay: inhibitors of MT1-MMP promoter transcription, cell-based, luciferase reporter, luminescence (AID 618)
Settings: MT1-MMP promoter luciferase reporter cells
The campaign covered roughly 87,000 compounds. About 540 (0.62%) were called active. The rule behind the calls is not given here. What follows is part of a selection rich in actives, with near analogues and random picks from the rest. Potency and affinity values are given separately.
Respond only with the outcome that fits, drawn from label 1 = active, label 0 = inactive

Consider the following illustrative entries.
{"compound": "Nc1ccc2oc(-c3ccccn3)nc2c1", "classification": "label 0"}
{"compound": "Cn1c(=O)c2c(nc(NCCc3ccccc3)n2Cc2ccc(F)cc2)n(C)c1=O", "classification": "label 0"}
{"compound": "CC(C)(C)c1ccc(OCC(=O)Nc2ccc(-c3nc4cccnc4o3)cc2)cc1", "classification": "label 0"}
{"compound": "COc1ccc(NS(=O)(=O)Cc2ccccc2Cl)cn1", "classification": "label 0"}
{"compound": "CC(C)CC(=O)Nc1cc2nn(-c3ccccc3)nc2cc1Cl", "classification": "label 0"}
{"compound": "Cc1ccc2oc(-c3ccc(NC(=O)CC(C)C)cc3)nc2c1", "classification": "label 0"}
{"compound": "CCN1C(=O)C2C(c3ccccc3F)NC(Cc3ccc(O)cc3)(C(=O)OC)C2C1=O (stereo not given)", "classification": "label 0"}
{"compound": "CCCCS(=O)(=O)/C=C\\C=C/S(=O)(=O)CCCC", "classification": "label 1"}

**Query** # outcome recorded in this test, key = COC(=O)c1ccc(C(NC(=O)OCc2ccccc2)/C(F)=C/[C@@H](C)C(=O)NCc2ccc(OC)c(OC)c2)cc1 (stereo not given in full)
**Result** label 0

====

Assay: inhibitors of MT1-MMP promoter transcription, cell-based, luciferase reporter, luminescence (AID 618);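 note: actives suppress MT1-MMP promoter-driven transcription so potencies describe inhibitors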
Conditions: MT1-MMP promoter luciferase reporter cells
The campaign covered roughly 87,000 compounds. About 540 (0.62%) were called active. The rule behind the calls is not given here. The entries come from a sample that favours actives as a whole. Measured potencies and affinities stand elsewhere.
Respond only with the outcome that fits, drawn from active, inactive

Consider the following illustrative entries.
{"smi": "C=CCn1c(SCc2cc(=O)n3ccsc3n2)nc2scc(C3CC3)c2c1=O", "classification": "inactive"}
{"smi": "Cc1ccccc1-n1nc(C(=O)c2cccs2)cc(-c2nc3ccccc3[nH]2)c1=N", "classification": "inactive"}
{"smi": "c1ccc2[nH]c(-c3ccnc4ccccc34)nc2c1", "classification": "inactive"}
{"smi": "Cc1ccc(N/C=C/C(=O)c2ccc(C)cc2)cc1", "classification": "inactive"}
{"smi": "c1ccc2nc(-c3nc4ccccc4[nH]3)ccc2c1", "classification": "active"}

# input for lookup
**Query** # outcome recorded in this test, key = Cc1ccc(NC(=O)c2ccc(S(=O)(=O)N3CCCC3)cc2)cc1
**Result** inactive

====

Assay: inhibitors of MT1-MMP promoter transcription, cell-based, luciferase reporter, luminescence (AID 618);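 note: actives suppress MT1-MMP promoter-driven transcription so potencies describe inhibitors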
Conditions: MT1-MMP promoter luciferase reporter cells
In all, about 87,000 compounds went through this assay and about 540 (0.62%) were called active. The rule behind the calls is not given here. What follows is part of a selection rich in actives, with near analogues and random picks from the rest. Measured potencies and affinities stand elsewhere.
Respond only with the outcome that fits, drawn from active, inactive

{"compound": "CCOC(=O)c1ccc2nc(NC(=O)c3cccs3)sc2c1", "classification": "inactive"}
{"compound": "CC(=O)c1cccc(NC(=O)c2cc3ccccn3n2)c1", "classification": "inactive"}
{"compound": "O=C(NCCCn1ccnc1)c1cc2c(s1)CCCCC2", "classification": "inactive"}
{"compound": "Cc1cccc(-n2ncc3c(N4CCC5(CC4)OCCO5)ncnc32)c1", "classification": "inactive"}
{"compound": "Cc1cccc(-n2ncc3c(N4CCN(c5nc(C)cc(C)n5)CC4)ncnc32)c1", "classification": "inactive"}

**Query** # outcome recorded in this test, key = Oc1c(C(Nc2nc3ccccc3s2)c2ccco2)ccc2cccnc12 (stereo not drawn)
**Result** inactive

**Query** # outcome recorded in this test, key = O=C(Nc1cnc2ccccc2c1)c1ccncc1
**Result** inactive

**Query** # outcome recorded in this test, key = O=c1cc(CO)oc(CN2CCN(c3ccccc3F)CC2)c1O
**Result** inactive

**Query** # outcome recorded in this test, key = CSCC[C@H](NC(=O)OC(C)(C)C)c1nnc(SCC(N)=O)o1
**Result** inactive

**Query** # outcome recorded in this test, key = COC(=O)c1ccccc1NC(=O)CN1CCC(NC(=O)c2ccccc2C)CC1
**Result** inactive

====

Assay: inhibitors of MT1-MMP promoter transcription, cell-based, luciferase reporter, luminescence (AID 618);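 note: actives suppress MT1-MMP promoter-driven transcription so potencies describe inhibitors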
Conditions: MT1-MMP promoter luciferase reporter cells
About 540 (0.62%) of roughly 87,000 compounds were called active. How the calls were made is not given here. Many of the other results were omitted from the sample, so actives are more common in it than they were. Results with a measured potency or affinity are listed apart.
Respond only with the outcome that fits, drawn from True = active, False = inactive

Consider the following illustrative entries.
{"compound": "CC(C)CCOC(=O)C1C(c2ccccc2)C(C(=O)O)C1c1ccccc1 (stereo not given)", "classification": "False"}
{"compound": "CCc1ccc(OCc2nc(-c3ccccn3)no2)c(Br)c1", "classification": "True"}
{"compound": "Cc1ccc(NC(=O)c2noc3c2CCCCC3)cc1C", "classification": "False"}
{"compound": "Cc1ccc(NC(=O)c2noc3c2CCCCC3)cc1", "classification": "False"}
{"compound": "O=C(Cc1ccc(Br)cc1)OCC(=O)c1ccc2c(c1)OCCO2", "classification": "False"}

**Query** # outcome recorded in this test, key = CCCCc1ccc(Nc2nc(CCC)cc(=O)[nH]2)cc1
**Result** False

**Query** # outcome recorded in this test, key = O=C(Cn1cnc2ccccc2c1=O)OCC(=O)c1ccc2c(c1)OCCO2
**Result** False

**Query** # outcome recorded in this test, key = CN=c1scc(C)n1/N=C/c1ccc2c(c1)OCO2
**Result** True

**Query** # outcome recorded in this test, key = O=C(NCCCc1ccccc1)c1cnc2n(c1=O)CCS2
**Result** False

**Query** # outcome recorded in this test, key = COC(=O)C1CCN(C(=O)c2ccc(NC(C)=O)cc2)CC1
**Result** False

**Query** # outcome recorded in this test, key = O=C(Cc1n[nH]c(=O)c2ccccc12)OCC(=O)c1ccc2c(c1)OCCO2
**Result** True

**Query** # outcome recorded in this test, key = Cc1ccc(-c2nnc(Nc3ccccc3)o2)cc1
**Result** True

**Query** # outcome recorded in this test, key = Cc1ccc(-c2nnc(-c3ccccc3)o2)cc1
**Result** False

**Query** # outcome recorded in this test, key = COc1cccc(C(=O)Nc2ccc(C(=O)O)cc2)c1
**Result** False

**Query** # outcome recorded in this test, key = CCn1c(=O)c2c3c(sc2n(C)c1=O)CCC3
**Result** False

**Query** # outcome recorded in this test, key = OC(CN1C2=NCCN2c2ccccc21)c1ccc(Br)cc1 (stereo not given)
**Result** False

**Query** # outcome recorded in this test, key = Clc1cc(Cl)c(OCc2nc(-c3ccccn3)no2)cc1Cl
**Result** False

**Query** # outcome recorded in this test, key = CCN=c1scc(C)n1/N=C/c1ccsc1
**Result** False

**Query** # outcome recorded in this test, key = O=C(Nc1cccnc1)c1noc2c1CCCCC2
**Result** False

**Query** # outcome recorded in this test, key = CCN(Cc1ccccc1)S(=O)(=O)c1ccc2oc(C(=O)O)c(C)c2c1
**Result** False

**Query** # outcome recorded in this test, key = COc1ccc(C2C(C(C)=O)=C(O)C(=O)N2CCO)c(OC)c1 (stereo not given)
**Result** False

**Query** # outcome recorded in this test, key = CC(=O)c1c(C)[nH]c(C(=O)Nc2ccc(C)cn2)c1C
**Result** True

**Query** # outcome recorded in this test, key = CC(C)c1ccc(OCc2nc(-c3ccccn3)no2)c(Br)c1
**Result** False

**Query** # outcome recorded in this test, key = CCCCCOc1ccc(Br)cc1/C(C)=N/NC1=NCCN1
**Result** True

**Query** # outcome recorded in this test, key = CCc1ccc(NC(=O)c2noc3c2CCCCC3)cc1
**Result** False
